Tested on: PC-3
Experiment: In vitro inhibition of PC-3 (human prostate cancer) cell growth.
Format: functional, cell-based
pIC50: −log10 of the molar value.
Outcome label depends on pIC50 relative to 6: at/above gives condition met, below gives condition not met.

INPUT: Quick check, pIC50 >= 6? `O=C1c2nccc([N+](=O)[O-])c2-c2nc3ccccc3c3ccnc1c23`
OUTPUT: condition not met

INPUT: Quick check, pIC50 >= 6? `CN(C)c1ccnc2c1C(=O)c1c(-c3ccccc3NC(=O)C(F)(F)F)ccnc1C2=O`
OUTPUT: condition met

INPUT: Quick check, pIC50 >= 6? `CCOC(=O)c1cnc2c(c1)-c1nc3ccccc3c3ccnc(c13)C2=O`
OUTPUT: condition not met

INPUT: Quick check, pIC50 >= 6? `COc1ccnc2c1C(=O)c1c(-c3ccccc3NC(=O)C(F)(F)F)ccnc1C2=O`
OUTPUT: condition met

INPUT: Quick check, pIC50 >= 6? `CN(C)c1ccnc2c1-c1nc3ccccc3c3ccnc(c13)C2=O`
OUTPUT: condition met

INPUT: Quick check, pIC50 >= 6? `O=C1c2nccc(O)c2-c2nc3ccccc3c3ccnc1c23`
OUTPUT: condition met

INPUT: Quick check, pIC50 >= 6? `Nc1ccnc2c1-c1nc3ccccc3c3ccnc(c13)C2=O`
OUTPUT: condition met

INPUT: Quick check, pIC50 >= 6? `COc1ccnc2c1-c1nc3ccccc3c3ccnc(c13)C2=O`
OUTPUT: condition met

INPUT: Quick check, pIC50 >= 6? `O=C1c2nccc(Cl)c2C(=O)c2c(-c3ccccc3[N+](=O)[O-])ccnc21`
OUTPUT: condition not met
